System: Streptococcus pyogenes
Test: In vitro minimum inhibitory concentration (MIC) vs. Strep. pyogenes
Assay type: cell-based
Details: Streptococcus pyogenes; Table IV; read-out: MIC vs. Strep. pyogenes
Each entry below carries its reported MIC.
OBSERVABLE: MIC (µg/mL)

CC(C)(C)C(=O)OCn1nnc([C@@H]2N3C(=O)[C@@H](NC(=O)[C@H](N)c4ccc(O)cc4)[C@H]3SC2(C)C)n1; 0.39
CC1(C)S[C@@H]2[C@H](N3CN[C@H](c4ccc(O)cc4)C3=O)C(=O)N2[C@H]1c1nnn[nH]1; 6.25
CC1(C)S[C@@H]2[C@H](N3CN[C@H](c4ccccc4)C3=O)C(=O)N2[C@H]1c1nnn[nH]1; 6.25
CC1(C)S[C@@H]2[C@H](N=CN3CCCCCC3)C(=O)N2[C@H]1c1nnn[nH]1; 50
CN(C)C=N[C@@H]1C(=O)N2[C@@H]1SC(C)(C)[C@@H]2c1nnn[nH]1; 12.5
